molecular target: T1, huNav1.7α + β1-β2-β3 (human, UniProt Q15858 1-1988; A5A6L6 19-218; O60939 30-215; Q2KI11 23-215); assay: binding FACS, CHO FlpIn
T1 construct: also called huNav1.7-beta1-beta2-beta3; huNav1.7-β1-β2-β3
Assign pEC50 to each entry below.
The meaning of pEC50 here: minus log10 of the concentration in molar units.

Requested read-out: pEC50. Entry: F010302359 (VHH) VHH: EVQLVESGGGVVQPGGSLRLSCAASSRQFIRDVFTGWYRQAPGKQRELVARIYESGNTQYADSVKGRFTISRDNAKKTVYLQMNSLRPEDTALYYCLFSGTISTGREYRSGDYWGQGTLVTVSS
8.19

Requested read-out: pEC50. Entry: F010301876 (VHH, also called F0103464B09(L11V, A63V, S68T, T79Y, R81Q, S82aN, N82bS, K83R, G88A, V89L)) VHH: EVQLVESGGGVVQPGGSLRLSCATTSRAFIRDVFTGWYRRVPGKERELVARIYNGGNTNYADFVKGRFTISRDNAKKMVYLQMNSLRPEDTALYYCLFSGTINTGREYRSGDYWGQGTLVTVSS
8.20

Requested read-out: pEC50. Entry: F010302337 (VHH) VHH: EVQLVESGGGVVQPGGSLRLSCAASHRQFIRDVFTGWYRRAPGKQRELVARIYEGGNTQYADSAKGRFTISRDNAKKTVYLQMNSLRPEDTALYYCLFSGTISTGREYRSGDYWGQGTLVTVSS
8.41

Requested read-out: pEC50. Entry: F010302355 (VHH) VHH: EVQLVESGGGVVQPGGSLRLSCAASHRAFIRDVFTGWYRRAPGKQRELVARIYEGGNTQYADSVKGRFTISRDNAKKTVYLQMNSLRPEDTALYYCLFSGTISTGREYRSGDYWGQGTLVTVSS
8.46
